test: method code SF-AS, from DOI: 10.1021/jm00253a014, PMID: 4151967; details: pH 7.4
Readout: logD
A bare number is all that is needed in reply.

Some compounds with known logD results, for comparison:
Compound	logD
CC1=C(N)C(=O)c2c(COC(N)=O)c3n(c2C1=O)CCC3O (stereo not given)	0.64
COC1=C(C)C(=O)c2c(c(COC(N)=O)c3n2CCC3)C1=O	1.71
COC1=C(C)C(=O)c2c(c(COC(N)=O)c3n2CCC3OC(C)=O)C1=O (stereo not given)	1.54
CCn1c(C)c(COC(=O)NCCO)c2c1C(=O)C(C)=C(OC)C2=O	1.64

Please fill in: logD reported for CCn1c(C)c(COC(N)=O)c2c1C(=O)C(C)=C(OC)C2=O = 1.81
